Test system: K4 kissing-loop RNA reporter;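 note: bound reporter read as fluorescence of individual clusters on recovered sequencing chips by microscopy, with normalized cluster intensities fitted with a binding model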
measurement_protocol: apparent KD of K4 kissing-loop reporter; higher = weaker reporter binding
test_parameters: Eterna round: R107; input ligand: tryptophan 2.4 mM
Tag: MET if measured apparent KD of K4 kissing-loop reporter is not below 100 nM, NOT MET if it is.

[[record]]
record_sequence = "GCAGGAUAGCGCGGUGCAGUGAUGUUGCACCGAGGACCGGUACGGCCGCCACUCGCUUAGAUAUCGUGUGAUGGGUAUGUCUAGA [theeternabot_exclusion_KL_Trp_A_8]"
tested_on = "K4 kissing-loop RNA reporter"
group_label = "MET"

[[record]]
record_sequence = "UGUCUUUUUUUGAUGUUUUUUGUAUAAUGGCAGGAUAUCGUAGAGGCGAGAAGGGCUUUUAUGCGUUAUGAGUGAUGUUUGUAGG [vevvmullin]"
tested_on = "K4 kissing-loop RNA reporter"
group_label = "MET"

[[record]]
record_sequence = "AAAAUAAAUCAGUGAUGUUGGUAUCCGGAUACCAGCGAUAAUCAUCGCCCUUGGCAGCCGCGGACGUACAAAAUAAGUACGUCCU [MatMod 15 - Jieux - Same State - Theophylline A]"
tested_on = "K4 kissing-loop RNA reporter"
group_label = "MET"

[[record]]
record_sequence = "GGAAAUUGAUCAACGCAGUGAUGUUGCGAUACCAGACACAAAGCCGUCCCUUGGCAGCGCGGGACAUUAAUGGAUCUAUGGGUUC [theeternabot_exclusion_KL_Theo_A_26]"
tested_on = "K4 kissing-loop RNA reporter"
group_label = "NOT MET"


----------
System: MS2 coat protein
measurement_protocol: apparent KD of MS2 coat protein; designed switch direction (-1 OFF switch, 1 ON switch): -1; higher = weaker reporter binding
test_parameters: Eterna round: R95; input ligand: none
apparent KD of MS2 coat protein below 50 nM gives NO; apparent KD of MS2 coat protein at or above it gives YES.

[[record]]
record_sequence = "CUAUUACGAGGAUAUGAUUUAAGUAACAUGAGGAUCACCCAUGUUUUUCCGUUGUUAUGUUCAGAAGGCGUAUUAU [JR_E5_Sub023] (puzzle: Exclusion 5)"
group_label = "NO"

[[record]]
record_sequence = "AAUUGCUAGCCGAUCCUCCACAUGAGGAUCACCCAUGUGCUCGUCUUGUAAUGUGCUAUCACGAAAGUGAUAGUACA [Sensor v3, turn-off variant 1 (MOD of Eli's v1-59 v.4)] (puzzle: Sensor v3, turn-off variant 1)"
group_label = "YES"

[[record]]
record_sequence = "UUUUGUUUUUUAUUUUUUAACAUGAGGAUCACCCAUGUAACGAGCAGAUCUUCAUGCAAGCUUUUUGCUCGUCUUAU [Sensor v3 - Turn-off variant 1 - 42] (puzzle: Sensor v3, turn-off variant 1)"
group_label = "YES"

[[record]]
record_sequence = "UAAUAAAAGGAGGAUAUCGUAUCGGAAACGAUACGAGAAGGCUUAACAUGAGGAUCACCCAUGUUCCUCAAUAA [Mat - Exclusion 6 - Eli Mod - D90] (puzzle: Exclusion 6)"
group_label = "NO"

[[record]]
record_sequence = "UAUUAAUGCAAGGAUAUGCUUUUAAUUUUUUUUGCAGAAGGUGCAACAUGAGGAUCACCCAUGUUUGAGGGUAU [JR_E6_Sub030] (puzzle: Exclusion 6)"
group_label = "YES"

